- Test system: 324938-238-R-J1-PDC complex spheroids viability;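 further: viability read after seven days of drug exposure; 100% = DMSO vehicle control wells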
- Experiment notes: Anticancer human tumor 324938-238-R-J1-PDC patient-derived bladder carcinoma cell line growth inhibition [CLK]
- Stated conditions: second compound 10 µM; first compound 0.01 µM; hits give low values
Assay metric: viability, T/C (%)
Answers are plain numbers, in %.

molecule="CCc1c2c(nc3ccc(O)cc13)-c1cc3c(c(=O)n1C2)COC(=O)[C@]3(O)CC + CNC(=O)c1ccc(Nc2nc(OC3CCCC3)c3c(-c4ccc5nc(C)oc5c4)c[nH]c3n2)c(OC)c1" units=% value_reported=10.8

For each of the molecules below, state viability, T/C.
1. Cn1ncnc1[C@H]1c2n[nH]c(=O)c3cc(F)cc(c23)N[C@@H]1c1ccc(F)cc1 + CN1CCN(c2cc(C(=O)Nc3cc4cc(-c5cnn(C)c5)ccc4cn3)ccn2)CC1
2. CCN1CCN(Cc2ccc(Nc3ncc(F)c(-c4cc(F)c5nc(C)n(C(C)C)c5c4)n3)nc2)CC1 + CNC(=O)c1ccc(Nc2nc(OC3CCCC3)c3c(-c4ccc5nc(C)oc5c4)c[nH]c3n2)c(OC)c1
3. CCc1c2c(nc3ccc(O)cc13)-c1cc3c(c(=O)n1C2)COC(=O)[C@]3(O)CC + CN1CCN(c2cc(C(=O)Nc3cc4cc(-c5cnn(C)c5)ccc4cn3)ccn2)CC1
4. Cn1ncnc1[C@H]1c2n[nH]c(=O)c3cc(F)cc(c23)N[C@@H]1c1ccc(F)cc1 + CNC(=O)c1ccc(Nc2nc(OC3CCCC3)c3c(-c4ccc5nc(C)oc5c4)c[nH]c3n2)c(OC)c1
5. COc1c(OCCCN2CCOCC2)ccc2c3n(c(=NC(=O)c4cnc(N)nc4)nc12)CCN3 + CNC(=O)c1ccc(Nc2nc(OC3CCCC3)c3c(-c4ccc5nc(C)oc5c4)c[nH]c3n2)c(OC)c1

1: 0.12; 2: 15.9; 3: 0.11; 4: 17.8; 5: 10.3

I have 2 molecules here; please give me viability, T/C for each one.
1. CCN1CCN(Cc2ccc(Nc3ncc(F)c(-c4cc(F)c5nc(C)n(C(C)C)c5c4)n3)nc2)CC1 + CN1CCN(c2cc(C(=O)Nc3cc4cc(-c5cnn(C)c5)ccc4cn3)ccn2)CC1
2. COc1c(OCCCN2CCOCC2)ccc2c3n(c(=NC(=O)c4cnc(N)nc4)nc12)CCN3 + CN1CCN(c2cc(C(=O)Nc3cc4cc(-c5cnn(C)c5)ccc4cn3)ccn2)CC1

[0.19, 0.24]
